- Tested System: Estrogen receptor beta (Homo sapiens, UniProt Q92731)
- Sequence (Q92731 whole entry, species assumed): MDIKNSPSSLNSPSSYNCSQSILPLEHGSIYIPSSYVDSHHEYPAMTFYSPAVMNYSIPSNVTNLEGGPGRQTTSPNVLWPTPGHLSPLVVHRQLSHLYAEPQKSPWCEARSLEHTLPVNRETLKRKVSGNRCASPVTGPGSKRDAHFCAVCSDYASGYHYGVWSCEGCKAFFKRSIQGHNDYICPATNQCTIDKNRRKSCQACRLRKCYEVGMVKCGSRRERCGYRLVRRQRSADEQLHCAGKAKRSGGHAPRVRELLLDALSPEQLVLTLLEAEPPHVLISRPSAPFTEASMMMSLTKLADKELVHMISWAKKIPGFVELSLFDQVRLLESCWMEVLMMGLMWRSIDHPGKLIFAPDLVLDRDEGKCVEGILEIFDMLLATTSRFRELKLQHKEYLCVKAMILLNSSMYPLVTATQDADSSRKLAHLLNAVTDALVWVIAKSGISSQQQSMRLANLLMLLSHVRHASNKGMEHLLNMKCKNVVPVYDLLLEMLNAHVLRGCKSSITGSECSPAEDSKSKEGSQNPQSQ
Observed Property: pIC50
Keep it numeric: pIC50 is minus log10 of the concentration in mol/L.

Reported Estrogen receptor beta (Homo sapiens, UniProt Q92731) pIC50 for item C=Cc1cc(O)cc2c1-c1ccc(O)c(C)c1CC2 was 8.25
